Provenance of the data: ChEMBL document CHEMBL1125725

system: MC-38; assay: Antitumor activity against the subcutaneously implanted C38 colon tumor in mice.; format: functional, Mus musculus; design: concentration or dose not given beside the values
value.kind: Activity

> print(dat)
                                    compound  test.target  value.kind  reading
 1        Cc1cccc2c(=O)c3cccc(CC(=O)O)c3oc12        MC-38    Activity     >90%
 2     Cc1cc(CC(=O)O)c2oc3c(C)cccc3c(=O)c2c1        MC-38    Activity     >90%
 3     Cc1c(F)ccc2c(=O)c3cccc(CC(=O)O)c3oc12        MC-38    Activity     >90%
 4     O=C(O)Cc1cccc2c(=O)c3ccc4ccccc4c3oc12        MC-38    Activity     >90%
 5           O=C(O)Cc1cccc2c(=O)c3ccccc3oc12        MC-38    Activity     >90%
 6      Cc1ccc2c(=O)c3cccc(CC(=O)O)c3oc2c1Cl        MC-38    Activity     >90%
 7    O=C(O)Cc1cccc2c(=O)c3ccc4c(c3oc12)CCC4        MC-38    Activity     >90%
 8       Cc1ccc2c(=O)c3cccc(C)c3oc2c1CC(=O)O        MC-38    Activity     >90%
 9       O=C(O)Cc1cccc2c(=O)c3cccc(Cl)c3oc12        MC-38    Activity      90%
10  O=C(O)Cc1cccc2c(=O)cc(-c3ccccc3)oc12 [MITOFLAXONE]        MC-38    Activity     >90%
11  Cc1ccc2c(=O)c3cccc(CC(=O)O)c3oc2c1C [VADIMEZAN]        MC-38    Activity     >90%
12     Cc1cccc2c(=O)c3c(C)ccc(CC(=O)O)c3oc12        MC-38    Activity     >90%
13      COc1ccc2c(=O)c3cccc(CC(=O)O)c3oc2c1C        MC-38    Activity     >90%
14    Cc1c(Br)ccc2c(=O)c3cccc(CC(=O)O)c3oc12        MC-38    Activity     >90%
15    Cc1c(Cl)ccc2c(=O)c3cccc(CC(=O)O)c3oc12        MC-38    Activity     >90%
